assay: Test of solubility of oxathiins and additives in various solvents; format: physicochemical; details: water; read-out: Solubility in water
Catalogue of molecules with associated solubility
Output spec: scalar in µg/mL, unitless text.

- structure string: "CC1=C(C(=O)Nc2ccccc2)SCCO1"
  solubility / µg/mL: 170

Field: next molecule
### Prompt What solubility value was documented for this molecule, "CC1=C(C(=O)Nc2ccccc2)S(=O)(=O)CCO1" ?
### Response 1000
